Measured Target: Solute carrier family 22 member 12 (Homo sapiens)
Sequence (Q96S37 whole entry): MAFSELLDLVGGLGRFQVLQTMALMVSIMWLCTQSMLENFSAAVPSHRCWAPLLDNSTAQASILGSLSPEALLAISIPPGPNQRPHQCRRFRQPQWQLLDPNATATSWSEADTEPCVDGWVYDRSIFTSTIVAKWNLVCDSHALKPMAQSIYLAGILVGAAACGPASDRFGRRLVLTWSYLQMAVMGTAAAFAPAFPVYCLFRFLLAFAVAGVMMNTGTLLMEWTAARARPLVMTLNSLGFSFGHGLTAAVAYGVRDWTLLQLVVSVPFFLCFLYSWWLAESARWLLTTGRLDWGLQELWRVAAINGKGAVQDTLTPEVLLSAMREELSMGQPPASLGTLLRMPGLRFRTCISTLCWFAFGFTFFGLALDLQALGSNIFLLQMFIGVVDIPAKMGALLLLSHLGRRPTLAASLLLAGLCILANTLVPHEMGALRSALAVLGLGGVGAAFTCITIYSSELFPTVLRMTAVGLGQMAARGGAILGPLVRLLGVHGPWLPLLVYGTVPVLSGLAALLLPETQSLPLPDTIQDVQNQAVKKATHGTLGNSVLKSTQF
Procedure Summary: Inhibition of human URAT1 transfected in HEK293 cells by measuring 14C-uric acid uptake preincubated for 30 mins followed by 14--uric acid addition and measured after 15 mins by liquid scintillation counter analysis
Assay type: cell-based
Property Label: log10 of IC50 (log10 of the value in µM)

| Compound | Measured Target | log10 of IC50 |
| --- | --- | --- |
| C/C(=C\Cc1cccc2c1OC(c1ccsc1)CC2=O)C(=O)O (stereo not given) | Solute carrier family 22 member 12 (Homo sapiens) | 0.34 |
| C/C(=C\Cc1cccc2c1OC(c1ccc(O)cc1)CC2=O)C(=O)O (stereo not given) | Solute carrier family 22 member 12 (Homo sapiens) | 0.43 |
| C/C(=C\Cc1cccc2c1OC(c1ccc(Br)c3ccccc13)CC2=O)C(=O)O (stereo not given) | Solute carrier family 22 member 12 (Homo sapiens) | -0.80 |
| Cc1ccc2c(c1C/C=C/S(=O)(=O)c1ccccc1)OC(c1ccsc1)CC2=O (stereo not given) | Solute carrier family 22 member 12 (Homo sapiens) | 0.65 |
| CC(C)=CCc1c(O)ccc2c1OC(c1ccc(O)cc1)CC2=O (stereo not given) | Solute carrier family 22 member 12 (Homo sapiens) | -0.62 |
| C/C(=C\Cc1c(O)ccc2c1OC(c1ccc(Br)c3ccccc13)CC2=O)C(=O)O (stereo not given) | Solute carrier family 22 member 12 (Homo sapiens) | -0.72 |
| C/C(=C\Cc1c(O)ccc2c1OC(c1ccc(Br)cc1)CC2=O)C(=O)O (stereo not given) | Solute carrier family 22 member 12 (Homo sapiens) | -0.08 |
| C/C(=C\Cc1cccc2c1OC(c1cccs1)CC2=O)C(=O)O (stereo not given) | Solute carrier family 22 member 12 (Homo sapiens) | -0.07 |
| O=C(O)/C=C/Cc1c(O)ccc2c1OC(c1ccc(O)cc1)CC2=O (stereo not given) | Solute carrier family 22 member 12 (Homo sapiens) | 0.48 |
| C/C(=C\Cc1cccc2c1OC(c1cc(Br)cs1)CC2=O)C(=O)O (stereo not given) | Solute carrier family 22 member 12 (Homo sapiens) | -0.01 |
| C/C(=C\Cc1c(O)ccc2c1OC(c1ccsc1)CC2=O)C(=O)O (stereo not given) | Solute carrier family 22 member 12 (Homo sapiens) | -0.19 |
| C/C(=C\Cc1c(O)ccc2c1OC(c1csc3ccccc13)CC2=O)C(=O)O (stereo not given) | Solute carrier family 22 member 12 (Homo sapiens) | -0.64 |
| O=C(O)/C=C/Cc1cccc2c1OC(c1ccc(O)cc1)CC2=O (stereo not given) | Solute carrier family 22 member 12 (Homo sapiens) | 0.63 |
| O=C(O)/C=C/Cc1cccc2c1OC(c1ccsc1)CC2=O (stereo not given) | Solute carrier family 22 member 12 (Homo sapiens) | 0.56 |
| O=C(O)CCCc1c(O)ccc2c1OC(c1cccs1)CC2=O (stereo not given) | Solute carrier family 22 member 12 (Homo sapiens) | 0.38 |
